IC50 overview
Assay System: Tyrosine-protein phosphatase non-receptor type 1 (Homo sapiens)
Sequence (P18031 whole entry): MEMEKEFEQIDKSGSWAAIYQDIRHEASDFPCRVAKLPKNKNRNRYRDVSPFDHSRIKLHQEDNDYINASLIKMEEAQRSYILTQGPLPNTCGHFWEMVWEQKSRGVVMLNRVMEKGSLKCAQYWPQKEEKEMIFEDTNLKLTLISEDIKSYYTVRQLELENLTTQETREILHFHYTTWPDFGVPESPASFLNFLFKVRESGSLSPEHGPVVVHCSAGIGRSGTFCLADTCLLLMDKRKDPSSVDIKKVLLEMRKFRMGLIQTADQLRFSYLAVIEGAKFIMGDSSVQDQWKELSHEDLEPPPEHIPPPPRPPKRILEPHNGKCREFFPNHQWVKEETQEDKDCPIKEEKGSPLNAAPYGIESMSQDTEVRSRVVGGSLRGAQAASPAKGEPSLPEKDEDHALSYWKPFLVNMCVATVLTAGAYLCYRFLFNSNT
Experiment Summary: Inhibition of human recombinant PTP1B-mediated pNPP hydrolysis

> print(dat)
                                   compound  measurement.kind  reported.value
1  COC(=O)/C1=C\CC[C@](C)(O)[C@H](O)CC/C(C(=O)OC)=C\C=C(/C(C)C)CC1              IC50       ≥ 50.7 µM
2  CC(=O)O[C@@H]1C/C(C)=C/C/C=C(/C)CC(=O)CC2=C[C@@H](OC2=O)[C@@H]1C(C)C              IC50       ≥ 53.4 µM
3  COC(=O)/C1=C\CC[C@]2(C)O[C@H]2CC/C(C(=O)OC)=C/C=C(/C(C)C)CC1              IC50       ≥ 53.1 µM
4  COC(=O)/C1=C\C=C(\C(C)C)CC/C(C(=O)O)=C/CC[C@]2(C)O[C@H]2CC1              IC50       ≥ 55.2 µM
5  CC(=O)O[C@@H]1C/C(C)=C/CCC(C)CC(=O)CC2=C[C@@H](OC2=O)[C@@H]1C(C)C (stereo partly specified)              IC50       ≥ 53.1 µM

Here is another compound to look at.
Prompt: Which value of IC50 has been reported for CC(C)=C1C/C=C(\C)CC/C=C(\C)CC/C=C(\C)CC1 in the records?
Completion: ≥ 73.4 µM
